Test System: UniProt:P00533
Metric: IC50

Problem: I have this compound here, COc1ccc(Nc2ncnc(N(C)c3cccc(Cl)c3)n2)cc1OC , and I need its recorded IC50.
Solution: < 0.4 µg/mL

Problem: Next: COc1cc(Nc2ncnc(Nc3ccncc3)n2)cc(OC)c1OC
Solution: > 4.5 µg/mL

Problem: // repeat for COC(=O)c1ccc(-c2cc(Nc3ncnc(NCc4cccs4)n3)[nH]n2)cc1 and report
Solution: 2.4 to 3.5 µg/mL

Problem: And COc1cc(Nc2ncnc(Nc3cc(-c4cccc(Cl)c4)n[nH]3)n2)cc(OC)c1OC ?
Solution: 0.4 to 2.4 µg/mL

Problem: Try the compound COC(=O)c1ccc(-c2cc(Nc3ncnc(NC4=NC(=O)CS4)n3)[nH]n2)cc1
Solution: 0.4 to 2.4 µg/mL

New cases:
Problem: I would be grateful if you could share the reported IC50 for COc1cc(Nc2ncnc(Nc3ccc(C)cc3)n2)cc(OC)c1OC .
Solution: < 0.4 µg/mL

Problem: Moving on to the next compound: CCN(CC)CCNc1ncnc(N(C)c2cccc(Cl)c2)n1
Solution: 0.4 to 2.4 µg/mL

---

EGFR (UniProt P00533) measurements of IC50, listed per entry.
Sequence (P00533 whole entry, looked up): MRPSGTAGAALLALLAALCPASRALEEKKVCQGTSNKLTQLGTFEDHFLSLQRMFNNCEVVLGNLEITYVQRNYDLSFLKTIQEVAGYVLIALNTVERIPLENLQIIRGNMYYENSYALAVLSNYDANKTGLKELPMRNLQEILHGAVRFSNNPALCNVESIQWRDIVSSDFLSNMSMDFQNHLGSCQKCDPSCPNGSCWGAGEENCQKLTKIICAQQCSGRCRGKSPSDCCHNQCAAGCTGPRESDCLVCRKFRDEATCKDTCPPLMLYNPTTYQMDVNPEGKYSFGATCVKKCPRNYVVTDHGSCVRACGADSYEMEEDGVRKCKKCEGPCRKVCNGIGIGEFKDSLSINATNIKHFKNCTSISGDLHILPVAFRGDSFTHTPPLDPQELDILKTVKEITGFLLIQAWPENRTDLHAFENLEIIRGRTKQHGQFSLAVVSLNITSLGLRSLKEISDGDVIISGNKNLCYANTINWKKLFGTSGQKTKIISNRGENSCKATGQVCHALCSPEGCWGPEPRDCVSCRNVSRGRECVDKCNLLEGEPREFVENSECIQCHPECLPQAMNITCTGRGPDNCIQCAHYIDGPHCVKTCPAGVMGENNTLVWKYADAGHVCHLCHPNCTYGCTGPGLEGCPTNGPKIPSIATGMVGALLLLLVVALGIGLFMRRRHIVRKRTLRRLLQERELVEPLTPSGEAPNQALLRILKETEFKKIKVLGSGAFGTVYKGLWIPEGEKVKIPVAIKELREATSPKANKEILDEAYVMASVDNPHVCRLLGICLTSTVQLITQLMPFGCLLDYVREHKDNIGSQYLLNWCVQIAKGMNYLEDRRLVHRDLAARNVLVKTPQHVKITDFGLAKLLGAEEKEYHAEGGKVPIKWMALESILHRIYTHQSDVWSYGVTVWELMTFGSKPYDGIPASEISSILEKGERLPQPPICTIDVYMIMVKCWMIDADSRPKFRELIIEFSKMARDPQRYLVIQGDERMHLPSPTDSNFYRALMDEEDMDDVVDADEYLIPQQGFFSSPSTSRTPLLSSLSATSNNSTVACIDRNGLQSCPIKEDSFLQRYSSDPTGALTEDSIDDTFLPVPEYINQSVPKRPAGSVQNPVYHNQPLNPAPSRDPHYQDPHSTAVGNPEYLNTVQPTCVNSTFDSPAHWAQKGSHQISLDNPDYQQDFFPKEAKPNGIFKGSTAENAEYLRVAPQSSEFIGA

Problem: Consider the molecule COc1cc(Nc2ncnc(-n3c(NC(C)=O)nc4ccccc43)n2)cc(OC)c1OC and give its measured IC50.
Solution: > 4.5 µg/mL

Problem: COc1cc(Nc2ncnc(-c3ccccc3)n2)cc(OC)c1 ?
Solution: > 4.5 µg/mL

Problem: And for COc1cc(Nc2ncnc(-n3c(NCc4nccs4)nc4ccccc43)n2)cc(OC)c1OC ?
Solution: 2.4 to 3.5 µg/mL

Problem: Similarly, CC(C)(C)OC(=O)NCCCNc1ncnc(-c2ccccc2)n1 ?
Solution: > 4.5 µg/mL

Problem: What about COc1cc(Nc2ncnc(-c3cccnc3NC(C)c3cccc4ccccc34)n2)cc(OC)c1OC (configuration not stated) ?
Solution: > 4.5 µg/mL

Problem: Item: Nc1ncnc(Nc2cccc(C(F)(F)F)c2)n1
Solution: > 4.5 µg/mL

***
Problem: Form field: reported IC50 of COc1cc(Nc2ncnc(N3CCN(C(=O)OC(C)(C)C)CC3)n2)cc(OC)c1OC
Solution: > 4.5 µg/mL

Problem: # repeat for COc1cc(Nc2ncnc(N(CCC(C)C)c3ccc(Cl)cc3)n2)cc(OC)c1OC
Solution: < 0.4 µg/mL

Problem: Please give the result for COc1cc(Nc2ncnc(Nc3cc(C)c(O)cc3C)n2)cc(OC)c1OC too.
Solution: < 0.4 µg/mL

Problem: Same read-out for COc1cc(Nc2ncnc(-n3c(NCc4cccc(F)c4)nc4ccccc43)n2)cc(OC)c1OC ?
Solution: 3.5 to 4.5 µg/mL

Problem: Try this molecule next: COc1cc(Nc2ncnc(-n3c(NCc4ccc(Cl)cc4C)nc4ccccc43)n2)cc(OC)c1OC
Solution: 3.5 to 4.5 µg/mL

Problem: And the next one, Fc1ccc(Nc2ncnc(Nc3ccc4[nH]ncc4c3)n2)cc1Cl ?
Solution: < 0.4 µg/mL

Problem: Queued: COc1ccc2[nH]cc(CCNc3ncnc(Nc4ccc(OC)c(OC)c4)n3)c2c1
Solution: > 4.5 µg/mL

Problem: Consider next the molecule O=c1[nH]c2ccccc2n1-c1ncnc(Nc2ncccn2)n1 in the same way.
Solution: > 4.5 µg/mL

Problem: Quick one: COc1ccc(CNc2ncccc2-c2ncnc(Nc3cc(OC)c(OC)c(OC)c3)n2)cc1
Solution: > 4.5 µg/mL

Problem: // same read-out, input: COc1cc(Nc2ncnc(-n3ccc4ccccc43)n2)cc(OC)c1OC
Solution: > 4.5 µg/mL

Problem: How about COc1cc(Nc2ncnc(-n3c(=O)sc4cc(Br)ccc43)n2)cc(OC)c1OC ?
Solution: > 4.5 µg/mL

Problem: Item: CN(c1cccc(Cl)c1)c1ncnc(N(C)c2cccc(Cl)c2)n1
Solution: 0.4 to 2.4 µg/mL

Problem: Request: CCN(CC)CCOc1ccc(Nc2ncnc(-n3c(N)nc4ccccc43)n2)cc1OC
Solution: > 4.5 µg/mL

Problem: Here is the next molecule: COc1ccccc1Nc1ncnc(-n2cccc2)n1
Solution: > 4.5 µg/mL

Problem: Another: COc1ccc(Nc2ncnc(N(C)CCc3ccccn3)n2)cc1OC
Solution: 0.4 to 2.4 µg/mL

Problem: Subsequent entry: COc1cc(Nc2ncnc(-c3ccnc(Cl)c3)n2)cc(OC)c1OC
Solution: > 4.5 µg/mL

Source listed as the Kinase Knowledgebase extract (Sharma et al. 2016).
